Reference source: PubChem BioAssay AID588675

target: Mas-related G-protein coupled receptor member X1 (Homo sapiens) (UniProt Q96LB2); assay: positive allosteric modulators of MrgX1, primary screen, HEK293 cells, Fluo-4 calcium flux (AID 588675); details: MrgX1-HEK293, Fluo-4 calcium flux, FDSS, at 10 µM;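 also: compound read alongside a low EC10 to EC30 dose of BAM8-22 agonist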
Sequence (Q96LB2 whole entry, looked up): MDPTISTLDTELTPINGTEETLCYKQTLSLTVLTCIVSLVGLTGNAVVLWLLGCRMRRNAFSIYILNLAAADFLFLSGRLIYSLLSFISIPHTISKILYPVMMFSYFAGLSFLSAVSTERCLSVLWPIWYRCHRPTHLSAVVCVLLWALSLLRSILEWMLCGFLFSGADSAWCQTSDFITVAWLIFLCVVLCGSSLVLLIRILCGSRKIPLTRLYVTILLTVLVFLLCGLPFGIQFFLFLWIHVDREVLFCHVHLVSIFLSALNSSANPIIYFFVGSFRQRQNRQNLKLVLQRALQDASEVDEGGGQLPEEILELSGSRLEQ
Hit rate of the full screen: of about 310,000 compounds, about 1,900 (0.61%) were called active.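 The calls were made as follows: active = plate-corrected calcium response at least 3 library SD above typical, normal starting fluorescence, not activating the receptor alone; inactive = the rest.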 The entries come from a sample that favours actives as a whole.
Parameter call: string, one of active, inactive

Some entries whose results are on file:
- compound: "Cc1oc(-c2ccccc2F)nc1CS(=O)CC(=O)NCCN1CCCCC1C (stereo not given)"
  assigned class: "inactive"
- compound: "Cc1ccccc1NC(=O)c1nn(-c2ccc(F)c(F)c2)ccc1=O"
  assigned class: "inactive"
- compound: "Cc1c(C(=O)N(C)CCc2cnn(C)c2)oc2c(F)cccc12"
  assigned class: "inactive"
- compound: "Cn1c(=O)n(C)c2cc(S(=O)(=O)N3CCCc4ccccc43)ccc21"
  assigned class: "inactive"
- compound: "CCOc1cc(/C=C(\\C#N)c2nc(-c3cccs3)c(NC(C)=O)s2)ccc1O"
  assigned class: "inactive"

Please turn your attention to the following entry.
Dear all, I need the recorded test outcome for COc1ccccc1OCCOc1ccc(/C=C2\C(=N)N3N=C(C)SC3=NC2=O)cc1 , thank you. inactive

---

biological target: Mas-related G-protein coupled receptor member X1 (Homo sapiens); assay: positive allosteric modulators of MrgX1, primary screen, HEK293 cells, Fluo-4 calcium flux (AID 588675); conditions: MrgX1-HEK293, Fluo-4 calcium flux, FDSS, at 10 µM;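 also: compound read alongside a low EC10 to EC30 dose of BAM8-22 agonist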
Out of some 310,000 compounds screened, about 1,900 (0.61%) were called active.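 The calls were made as follows: active = plate-corrected calcium response at least 3 library SD above typical, normal starting fluorescence, not activating the receptor alone; inactive = the rest.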 This excerpt belongs to a sample that is enriched for actives.
// classify into t (active), f (inactive)

- compound: "CC(C)CC(=O)NC(=S)NCc1ccccc1"
  assayed system: "Mas-related G-protein coupled receptor member X1 (Homo sapiens)"
  assigned class: "f"
- compound: "CCCCn1c(N)c(N(CCOC)C(=O)COc2c(C)cccc2C)c(=O)[nH]c1=O"
  assayed system: "Mas-related G-protein coupled receptor member X1 (Homo sapiens)"
  assigned class: "f"
- compound: "CC1(C)CC(=O)CC2(C1)NCC(c1ccccc1Cl)c1c2[nH]c2ccccc12 (centres undefined)"
  assayed system: "Mas-related G-protein coupled receptor member X1 (Homo sapiens)"
  assigned class: "t"
- compound: "COc1ccc(-c2cn[nH]c2-c2ccc(OC)cc2)cc1"
  assayed system: "Mas-related G-protein coupled receptor member X1 (Homo sapiens)"
  assigned class: "f"
- compound: "COc1ccc(CNc2c(CO)cnc3c2cnn3C)cc1"
  assayed system: "Mas-related G-protein coupled receptor member X1 (Homo sapiens)"
  assigned class: "f"

Dear all, I need the recorded test outcome for COc1ccc(Oc2cn[nH]c2-c2ccc(OC)cc2O)cc1 , thank you. t

What call does the record list for COc1cc(C2/C(=C(\O)c3ccc4c(c3)CC(C)O4)C(=O)C(=O)N2Cc2ccco2)ccc1O (centres undefined) ? f

Test call for this compound, please: O=C(O)C1=CCCN(CCON=C(c2ccccc2)c2ccccc2)C1 f

---

molecular target: Mas-related G-protein coupled receptor member X1 (Homo sapiens); test: positive allosteric modulators of MrgX1, primary screen, HEK293 cells, Fluo-4 calcium flux (AID 588675); settings: MrgX1-HEK293, Fluo-4 calcium flux, FDSS, at 10 µM;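 also: compound read alongside a low EC10 to EC30 dose of BAM8-22 agonist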
In all, about 310,000 compounds went through this assay and about 1,900 (0.61%) were called active.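 How the source made its calls: active means plate-corrected calcium response at least 3 library SD above typical, normal starting fluorescence, not activating the receptor alone; inactive means the rest.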 Shown is part of a subset that was picked to be rich in actives.
Allowed answers: active, inactive

- compound: "S=C(NCCC1=CCCCC1)Nc1ccccc1"
  assigned class: "inactive"
- compound: "Cc1ccc2nc(Nc3ccccc3)cc(C)c2c1"
  assigned class: "active"
- compound: "CCOc1ccc2nc(/N=C/c3nc(-c4ccccc4)oc3O)sc2c1"
  assigned class: "active"

What call does the record list for O=[N+]([O-])c1ccc2oc(-c3cccc(O)c3)nc2c1 ? inactive

Record lookup: outcome of this test for CC(=O)N1c2ccc(S(=O)(=O)N3CCCC(C(=O)NCc4ccc(Cl)cc4)C3)cc2CC1C (stereo unspecified) ? inactive

Which outcome did this test record for the compound Cc1c(C(=O)N2CCN(c3ccc(F)cc3)CC2)oc2c1C(=O)CCC2 ? active

Which outcome did this test record for the compound Cc1cccc(Cn2cnc3c(N)c(C)c(C)cc32)c1 ? active

Which outcome did this test record for the compound CC1=C(C/C=C(\C)CCCC(C)CCCC(C)CCCC(C)C)C(=O)c2ccccc2C1=O (stereo unspecified) ? inactive

What is the recorded call for this compound in the test? COc1cccc(OC)c1C(=O)OCC(=O)/C(C#N)=C(\C)N inactive

What outcome does the record of this test show for CCN(CC(=O)Nc1ccccc1OC)C(=O)Cn1cnc2ccccc2c1=O ? inactive

Outcome logged for O=C1CCC([N+](=O)[O-])C(c2ccccc2Br)N1 (stereo unspecified) in this assay: active

Given CCCCN1C(N)=NC[C@@H]1CC1CCCCC1 , state the outcome it received in this test. inactive

What is the recorded call for this compound in the test? CN(c1ccccc1)S(=O)(=O)c1ccc(NC(=O)COc2ccccc2)cc1 inactive

For Cn1c(/C(C#N)=C2/CCCCCN2)nc2ccccc21 , what call appears in the results of this test? active

For this compound, state the assay outcome: COC(=O)C1=C(C)N(C)C(=S)NC1c1cc(OC)ccc1OC (stereo unspecified) inactive

Outcome logged for CC(=O)N1c2ccc(S(=O)(=O)N3CCCC(C(=O)Nc4cccc(F)c4)C3)cc2CC1C (stereo unspecified) in this assay: inactive

---

molecular target: Mas-related G-protein coupled receptor member X1 (Homo sapiens); experiment: positive allosteric modulators of MrgX1, primary screen, HEK293 cells, Fluo-4 calcium flux (AID 588675); settings: MrgX1-HEK293, Fluo-4 calcium flux, FDSS, at 10 µM;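 also: compound read alongside a low EC10 to EC30 dose of BAM8-22 agonist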
The campaign covered roughly 310,000 compounds. About 1,900 (0.61%) were called active.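 The calls were made as follows: active = plate-corrected calcium response at least 3 library SD above typical, normal starting fluorescence, not activating the receptor alone; inactive = the rest.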 For the sample, actives were picked, then their nearest neighbours and some compounds at random.
Result category, one only: active, inactive

Recorded results for 6 compounds are shown here.
- compound: "Cc1[nH]n(-c2cccc(Cl)c2)c(=O)c1/C=N/n1c(C)nc2ccccc2c1=O"
  assigned class: "inactive"
- compound: "CCCC(=O)Nc1ncnc2c1ncn2[C@@H]1O[C@@H]2OP(=O)(O)OC[C@H]2[C@H]1OC(=O)CCC"
  assigned class: "inactive"
- compound: "COC(=O)c1ccc(/C=N/N2C(C)CCCC2C)cc1 (stereo not given)"
  assigned class: "active"
- compound: "O=C(CCc1[nH]c2ccccc2c1Sc1ccccc1)N(CCO)CCO"
  assigned class: "inactive"
- compound: "CCN(c1cccc(C)c1)S(=O)(=O)c1ccc(-c2coc(C)n2)cc1"
  assigned class: "active"
- compound: "Cc1ccc(-n2[nH]c(C)c(/C=N/N3C(=O)c4cccc5cccc(c45)C3=O)c2=O)cc1"
  assigned class: "inactive"

Could you please tell me the result logged for CCOC(=O)N1CCN(C(=O)COCc2cc(-c3ccc4c(c3)OCO4)on2)CC1 in this assay? active

Any idea what this test logged for CC(C)(C)c1nc2ccccc2c(=O)n1N1C(=O)c2ccccc2C1=O ? inactive

Called result for O=C(COC(=O)c1ccccc1Br)Nc1nnc(-c2ccccc2)o1 inactive

Can you look up the reported call for Cc1[nH]n(-c2ccc(Cl)cc2)c(=O)c1/C=N/n1c(C)nc2ccccc2c1=O for me? active

---

biological target: Mas-related G-protein coupled receptor member X1 (Homo sapiens); test: positive allosteric modulators of MrgX1, primary screen, HEK293 cells, Fluo-4 calcium flux (AID 588675); conditions: MrgX1-HEK293, Fluo-4 calcium flux, FDSS, at 10 µM;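 also: compound read alongside a low EC10 to EC30 dose of BAM8-22 agonist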
Hit rate of the full screen: of about 310,000 compounds, about 1,900 (0.61%) were called active.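 Rule for the calls: active = plate-corrected calcium response at least 3 library SD above typical, normal starting fluorescence, not activating the receptor alone; inactive = the rest.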 The sample as a whole holds a higher share of actives than the screen did.
Write down one outcome, taken from label 1 (active), label 0 (inactive)

- molecule: "COc1ccccc1C(CNC(=O)c1cccc(NS(=O)(=O)c2ccc(Br)cc2)c1)N(C)C (centres undefined)"
  assigned class: "label 0"

For Cc1ccc(C2Nc3cccc4cccc(c34)N2)cc1 , which call appears in the assay record? label 0

Lab log entry: CS(=O)(=O)c1ccc2c(c1)SC1=NC(=O)/C(=C/c3ccco3)C(=N)N12 — outcome as called in the assay? label 0

For CCS(=O)(=O)C1=NSC2=NC(=O)/C(=C\c3cc(C)n(-c4cccc(OC)c4)c3C)C(=N)N21 , which call appears in the assay record? label 1

---

biological target: Mas-related G-protein coupled receptor member X1 (Homo sapiens) (UniProt Q96LB2); assay: positive allosteric modulators of MrgX1, primary screen, HEK293 cells, Fluo-4 calcium flux (AID 588675); conditions: MrgX1-HEK293, Fluo-4 calcium flux, FDSS, at 10 µM;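 also: compound read alongside a low EC10 to EC30 dose of BAM8-22 agonist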
In all, about 310,000 compounds went through this assay and about 1,900 (0.61%) were called active.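 How the source made its calls: active means plate-corrected calcium response at least 3 library SD above typical, normal starting fluorescence, not activating the receptor alone; inactive means the rest.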 The list comes from a sample in which actives are over-represented; it also holds close analogues and randomly drawn compounds.
Can you answer with just one of these options? label 1 (active), label 0 (inactive)

- compound: "Cc1occc1C(=O)Nc1nnc(C2CCCCC2)s1"
  assigned class: "label 0"
- compound: "CCCCOc1ccc(N(CC(=O)NC(C)C)C(=O)CCC(=O)Nc2ccccn2)cc1"
  assigned class: "label 0"
- compound: "Cc1occc1C(=O)Nc1nnc(-c2ccncc2)s1"
  assigned class: "label 1"
- compound: "CC1=C(C(=O)Nc2cc(C)ccn2)C(c2cnn(C)c2)C2=C(CC(c3ccccc3)CC2=O)N1 (stereo unspecified)"
  assigned class: "label 0"
- compound: "Cc1csc(=NC(=O)c2ccccc2)n1CCO"
  assigned class: "label 0"
- compound: "CCN1CCCC1CNC(=O)c1cc2cc(OC)c(OC)cc2[nH]1 (stereo unspecified)"
  assigned class: "label 0"
- compound: "CCN(CC(=O)NC1CCS(=O)(=O)C1)S(=O)(=O)c1ccccc1 (stereo unspecified)"
  assigned class: "label 0"
- compound: "O=C1CCCCN1CCCC(=O)N1CCCC(Nc2ccc(F)cc2)C1 (stereo unspecified)"
  assigned class: "label 0"
- compound: "CCC(=O)NC(=Nc1nc2ccccc2s1)NC(=O)CC"
  assigned class: "label 0"
- compound: "COC(=O)c1c(NC(=O)C2CC(C)=C(C)CC2C(=O)O)sc2c1CCCCC2 (stereo unspecified)"
  assigned class: "label 0"

// return assay outcome for O=C(/C=C/c1ccc(OCc2c(F)cccc2Cl)cc1)N1CCOCC1 label 0

Dear all, I need the recorded test outcome for Cc1ccc(C(=O)Nc2nnc(-c3ccncc3)s2)o1 , thank you. label 0

Call for entry CCOc1cccc2c1OC1(CCCCC1)N1N=C(c3cccnc3)CC21 (stereo unspecified) : label 0

Record lookup: outcome of this test for CC(C)CC(=O)N/C(N)=N/c1nc2ccccc2s1 ? label 1

# fetch the recorded call for Cc1ccc2[nH]c(C(=O)O)c(NC(=O)c3ccccc3[N+](=O)[O-])c2c1 here label 0

Please share the test call associated with Fc1cccc(Cl)c1COc1ccc(-c2nnco2)cc1 . label 1
